- condition.info: 303.15 K; 101.33 kPa; Liquid; Vibrating tube method
observation.type: mass density (kg/m3)

compound | mass density (kg/m3)
CCOC(C)=O [ethyl acetate] | 888.5
CCCCCCCCO | 817.52
C1CCCCC1 | 769.12
CCCCCO | 807.11
CCCCO | 801.9

###

- condition.info: 303.15 K; 101.33 kPa; Liquid; Capillary tube (Ostwald / Ubbelohde) method
observation.type: viscosity (mPa·s)

compound | viscosity / mPa·s
CCCCO [butan-1-ol] | 2.25

(I) CCCCCO [pentan-1-ol]
(II) CCOC(C)=O [ethyl acetate]
(III) C1CCCCC1 [cyclohexane]
(IV) CCCCCCCCO [octan-1-ol]
Put the items in sequence by viscosity, from largest down. # the answer lists labels in the order requested
IV, I, III, II

Values from the NIST ThermoML archive (doi:10.1016/j.tca.2009.02.022)
